Data provenance is ChEMBL document CHEMBL4028909.

Assay: Terminal half life in mouse at 3 mg/kg, iv
Assay type: ADME, organism-based
Details: in vivo, read-out: beta t1/2 (converted)
readout name: half-life (min)
Give the value, in units of min, as a plain number.

Entry `COCCCc1ccc2oc(-c3ccc(OC)c(OC)c3)cc2c1` ; half-life = 84

====

Assay: Initial concentration in mouse at 3 mg/kg, iv
Format: ADME, organism-based
Conditions: in vivo
readout name: C0

Entry `COCCCc1ccc2oc(-c3ccc(OC)c(OC)c3)cc2c1` ; C0 = 4870 ng/mL

====

Assay: AUClast in mouse at 3 mg/kg, po
Format: ADME, organism-based
Parameters: dose 3 mg/kg, time 0 - last, route oral
Settings: in vivo
readout name: AUC(0-t) (ng·h/mL)
Give the value, in units of ng·h/mL, as a plain number.

Entry `COCCCc1ccc2oc(-c3ccc(OC)c(OC)c3)cc2c1` ; AUC(0-t) = 246

====

Test: Clearance in iv dosed dog
Assay type: ADME, organism-based, Canis lupus familiaris
Conditions: in vivo
readout name: clearance (mL/min/kg)
Give the value, in units of mL/min/kg, as a plain number.

Entry `COCCCc1ccc2oc(-c3ccc(OC)c(OC)c3)cc2c1` ; clearance = 29

====

Test: Ratio of AUC in ICR mouse brain to AUC in ICR mouse plasma at 10 mg/kg, po measured at 3 hrs
Assay type: ADME, organism-based
Conditions: read-out: Ratio AUC
readout name: Kp at 3 h
The answer should be written as a number, with no unit following it.

Entry `COCCCc1ccc2oc(-c3ccc(OC)c(OC)c3)cc2c1` ; Kp at 3 h = 1.2

====

Assay: Terminal half life in mouse at 3 mg/kg, po
Type: ADME, organism-based
Conditions: in vivo, read-out: beta t1/2 (converted)
readout name: half-life
Report as: number unit

Entry `COCCCc1ccc2oc(-c3ccc(OC)c(OC)c3)cc2c1` ; half-life = 2 h

====

Assay: AUC (infinity) in mouse at 30 mg/kg, po
Type: ADME, organism-based
Parameters: dose 30 mg/kg, time infinity, route oral
Details: in vivo
readout name: AUC(0-inf) (ng·h/mL)
Give the value, in units of ng·h/mL, as a plain number.

Entry `COCCCc1ccc2oc(-c3ccc(OC)c(OC)c3)cc2c1` ; AUC(0-inf) = 10500

====

Target: Cytochrome P450 2D6 (Homo sapiens)
Sequence (P10635 whole entry): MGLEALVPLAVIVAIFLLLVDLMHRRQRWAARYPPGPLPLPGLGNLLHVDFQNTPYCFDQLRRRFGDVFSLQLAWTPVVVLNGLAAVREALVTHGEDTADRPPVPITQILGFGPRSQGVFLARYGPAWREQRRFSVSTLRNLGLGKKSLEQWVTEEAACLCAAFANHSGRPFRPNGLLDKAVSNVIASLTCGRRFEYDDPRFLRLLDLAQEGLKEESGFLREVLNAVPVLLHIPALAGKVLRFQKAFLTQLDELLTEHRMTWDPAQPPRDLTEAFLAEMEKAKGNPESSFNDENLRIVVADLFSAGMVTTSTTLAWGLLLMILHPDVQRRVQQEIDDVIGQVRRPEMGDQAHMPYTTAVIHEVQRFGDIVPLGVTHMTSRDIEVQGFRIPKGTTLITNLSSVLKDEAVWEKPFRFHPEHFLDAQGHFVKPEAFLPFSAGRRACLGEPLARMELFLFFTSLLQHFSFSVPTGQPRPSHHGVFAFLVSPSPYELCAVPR
Test: Inhibition of CYP2D6 in human liver microsomes preincubated for 5 mins followed by addition of NADPH generating system measured after 20 mins by LC-MS/MS analysis
Type: ADME
readout name: IC50

Entry `COCCCc1ccc2oc(-c3ccc(OC)c(OC)c3)cc2c1` ; IC50 = > 50 µM

====

Experiment: Oral bioavailability in monkey
Format: ADME, organism-based, Macaca mulatta
Details: rhesus monkey, in vivo
readout name: bioavailability (%)
Give the value, in units of %, as a plain number.

Entry `COCCCc1ccc2oc(-c3ccc(OC)c(OC)c3)cc2c1` ; bioavailability = 70

====

Assay: AUClast in mouse at 3 mg/kg, iv
Assay type: ADME, organism-based
Design: dose 3 mg/kg, time 0 - last, route intravenous
Settings: in vivo
readout name: AUC(0-t)
Report as: number unit

Entry `COCCCc1ccc2oc(-c3ccc(OC)c(OC)c3)cc2c1` ; AUC(0-t) = 1300 ng·h/mL
